Test system: PDH-E1alpha (pSer300) in HEK293T cells
assay-notes: Cellular immunofluorescence assay, PDH-E1alpha (pSer300) in HEK293T cells
Assay type: cell-based, human
setup-conditions: Homo sapiens, HEK-293T, 5 hours incubation, anti-PDH-E1alpha (pSer300) immunofluorescence, read-out: IC50 (cell data)
pIC50: −log10 of the molar value.
Listed next: entries and their corresponding pIC50.

>>> recorded_result("C[C@@H]1CN(C(=O)[C@@](C)(O)C(F)(F)F)Cc2cnc(-c3ccc(F)cc3)n21")
"> 6.52"
>>> recorded_result("C[C@H]1CN(C(=O)[C@@](C)(O)C(F)(F)F)Cc2cnn(-c3ccc(Cl)cc3)c21")
"5.52 to 6.52"

Next molecule, please.
Challenge: What value of measured pIC50 is listed for CC1CN(C(=O)[C@@](C)(O)C(F)(F)F)Cc2cn(-c3ccc(F)cc3)nc21 (some centres unmarked) ?
Response given: 4.30 to 5.52

Each recorded value in this set is attributed to patent US10526325B2.
